Entries and their melting point

Molecule	melting point
O=C(Nc1ccsc1C(=O)O)c1ccoc1	207 to 209 °C
CCOc1ccc(OCC2CO2)cc1 (configuration not stated)	53 to 55 °C
NCC(O)COc1cccc(Cl)c1Cl (configuration not stated)	110 to 112 °C
Nc1ccc(Oc2ccccc2)cc1C(=O)O	138 to 140 °C
O=C(O)Cn1ccccc1=O	220 to 222 °C
Nc1cccc(C(=O)N2CCCCC2CCO)c1 (configuration not stated)	129 to 131 °C
COc1ccccc1N1CC(C(=O)O)CC1=O (configuration not stated)	139 to 141 °C

---

List of melting point values.

Molecule	melting point
COC(=O)C(C)(O)c1ccncc1 (stereo unspecified)	104 to 106 °C
O=C1CSc2ccc(C(=O)O)cc2N1	251 to 253 °C
Brc1ccccc1-c1nc2cccnc2[nH]1	196 to 198 °C
COc1coc(CO)cc1=O	163 to 165 °C
Cc1nc2cc(O)nn2c(C)c1CCC(=O)O	302 to 304 °C
CNCc1c(Cl)ncnc1N(C)C	43 to 45 °C
O=C(O)c1cc(=O)c(OCc2ccccc2)co1	179 to 181 °C
NC(=O)c1cnn2c3c(cnc12)CCOC3=O	289 to 291 °C
Nc1cc(Cc2ccccc2)ccc1O	136 to 138 °C
COc1ccc(-c2cc3ncnc(Cl)c3s2)cc1	179 to 181 °C
CCCC1CNCCN1 (stereo unspecified)	59 to 61 °C
CC(C)(CC(=O)O)NC(=O)OC(C)(C)C	89 to 91 °C
NCCCCc1cn[nH]c1	72 to 74 °C
COc1ccc(N)cc1OCc1ccncc1	116 to 118 °C
C=CCNC(=O)c1cccc(C#N)c1	79 to 81 °C
CSc1cccc(Cl)c1C#N	114 to 116 °C
NC(=O)Cc1ccc(F)cc1	155 to 157 °C
Cc1nc(Cl)ccc1C(=O)O	149 to 151 °C
COC(=O)c1sc2ncccc2c1N	191 to 193 °C
CC(O)Cc1cc(F)ccc1Br (stereo unspecified)	56 to 58 °C
COC(=O)c1c(C)nn(C)c1Cl	36 to 38 °C
N#Cc1ccc(S(=O)(=O)CCCl)cc1	116 to 118 °C
CC(C)NC(=O)NC(C)C	191 to 193 °C
Clc1ccc(CNC2=NCCS2)cc1	106 to 108 °C
Cc1cc(O)c(C=O)cc1C	64 to 66 °C
OC(c1ccc(F)cc1)C1CCNCC1 (stereo unspecified)	146 to 148 °C
NC(=S)CN1C(=O)c2ccccc2S1(=O)=O	160 to 162 °C
Fc1ccc(COc2cccc(N3CCNCC3)c2)cc1	84 to 86 °C
NC1(C(=O)O)CCCSC1 (stereo unspecified)	208 to 210 °C
O=C(O)c1cc(Cl)ccc1Oc1ccc(F)cc1	102 to 104 °C
O=C(O)c1ccccc1SCc1cccs1	178 to 180 °C
Cc1c(S(N)(=O)=O)sc2c(Cl)cccc12	261 to 263 °C
CN(Cc1nn[nH]n1)C(=O)c1ccccc1	136 to 138 °C
CCOC(=O)Nc1nc2ccc(N)cc2s1	339 to 341 °C
COc1ccccc1C(=O)c1ccccn1	49 to 51 °C
CC(=O)c1ccc(OCCCC(=O)O)cc1	135 to 139 °C
CC1CN(S(=O)(=O)c2cccc(C(=O)O)c2)CC(C)O1 (stereo unspecified)	188 to 190 °C
O=C(O)Cc1ccc(NC(=O)C2CCCC2)cc1	173 to 175 °C
Cc1cccc(OC(C)C(=O)O)c1 (stereo unspecified)	85 to 87 °C
O=C1NC(=O)c2cc(Cl)c(Cl)cc21	217 to 219 °C
CCOC(=O)/C(C#N)=C\Nc1ccc(F)cc1Cl	168 to 170 °C
NNC(=O)COc1ccc(Br)cc1	170 to 172 °C
N#Cc1cccc(Oc2ccc(N)cn2)c1	104 to 106 °C
COc1ccc(C(=O)CNC(=O)CCC(=O)O)cc1	167 to 169 °C
CC(Cl)C(=O)N1N=C(c2ccc(Cl)cc2)CC1c1ccco1 (stereo unspecified)	141 to 143 °C
Cc1ccc(F)cc1S(=O)(=O)Nc1cccc(C(=O)O)c1	215 to 217 °C
Cc1nc2ccccc2c(=O)n1-c1ccc(C(=O)O)cc1	220 to 222 °C
COc1ccc(NC(=O)NCCC(=O)O)cc1	174 to 176 °C
O=C(O)CCC(=O)NCC(=O)c1ccccc1Cl	151 to 153 °C
Cc1ccc(OCc2nc(C(=O)NC3=NCCS3)cs2)cc1	200 to 202 °C
c1cc(-c2nnc[nH]2)ccn1	225 to 227 °C
Clc1cc2nncn2cn1	111 to 113 °C
CC(C)c1nnc(S)n1N	117 to 119 °C
CC(NC(=O)CCn1cncn1)C(=O)O (stereo unspecified)	254 to 256 °C
COc1c([N+](=O)[O-])ccc(C=O)c1OC(F)F	95 to 97 °C
O=C(O)c1ccc(NS(=O)(=O)c2ccc(Cl)c([N+](=O)[O-])c2)cc1O	242 to 244 °C
